Measured percent inhibition of Factor 7 mRNA, 3.125 nM by item
Tested on: human Factor 7 mRNA
Test: Dose-dependent antisense inhibition of human Factor 7 in HepB3 cells, transfection with lipofectin
Assay type: cell-based
Settings: Example 2; HepB3, lipofectin, 3.125 nM, ~16 h
In the oligonucleotide strings, read from the 5' end, every base follows the letter of its sugar. An asterisk marks phosphorothioate; unmarked linkages are phosphodiester. Other units and linkages are bracketed, terminal groups are in braces. A string of capitals states the bases alone. e = 2'-O-(2-methoxyethyl) (MOE); [5mC] = 5-methylcytosine; d = 2'-deoxy (DNA)
Could you kindly put the unit after your number?

Example entries begin here.
SUBSTANCE	OBSERVED_MEASUREMENT
407935 (antisense eA*eT*eG*e[5mC]*eA*dT*dG*dG*dT*dG*dA*dT*dG*d[5mC]*dT*eT*e[5mC]*eT*eG*eA) [compound 407935]	57%
407641 (antisense e[5mC]*e[5mC]*eT*eG*eA*dG*dG*d[5mC]*d[5mC]*dA*dG*d[5mC]*dA*dG*dA*eT*e[5mC]*eA*e[5mC]*eG) [compound 407641]	53%
407594 (antisense e[5mC]*e[5mC]*eT*eG*e[5mC]*dA*dG*d[5mC]*d[5mC]*dA*dG*dG*d[5mC]*dA*dG*e[5mC]*e[5mC]*e[5mC]*eT*eG) [compound 407594]	10%

Asked: I would be grateful if you could share the reported percent inhibition of Factor 7 mRNA, 3.125 nM for 407606 (antisense e[5mC]*eT*eG*eG*eT*d[5mC]*d[5mC]*dT*dT*dG*d[5mC]*dA*dG*dG*dA*eG*e[5mC]*e[5mC]*e[5mC]*e[5mC]) [compound 407606] .
Given back: 20%

Asked: I would be grateful if you could share the reported percent inhibition of Factor 7 mRNA, 3.125 nM for 407900 (antisense e[5mC]*e[5mC]*e[5mC]*e[5mC]*eA*d[5mC]*dA*dA*dT*dT*d[5mC]*dG*dG*d[5mC]*d[5mC]*eT*eT*eG*eG*eG) [compound 407900] .
Given back: 52%

Asked: I would be grateful if you could share the reported percent inhibition of Factor 7 mRNA, 3.125 nM for 407939 (antisense eT*eG*e[5mC]*eA*eG*d[5mC]*d[5mC]*d[5mC]*dG*dG*d[5mC]*dA*d[5mC]*d[5mC]*d[5mC]*eA*eG*e[5mC]*eG*eA) [compound 407939] .
Given back: 62%

Asked: I would be grateful if you could share the reported percent inhibition of Factor 7 mRNA, 3.125 nM for 407936 (antisense eG*eG*e[5mC]*eA*eT*dT*d[5mC]*dG*d[5mC]*d[5mC]*dA*d[5mC]*d[5mC]*dA*dT*eG*e[5mC]*eA*eT*eG) [compound 407936] .
Given back: 45%

Asked: I would be grateful if you could share the reported percent inhibition of Factor 7 mRNA, 3.125 nM for 407643 (antisense e[5mC]*eA*e[5mC]*eA*e[5mC]*dA*dT*dG*dG*dA*dG*dT*d[5mC]*dA*dG*e[5mC]*eA*eT*e[5mC]*eG) [compound 407643] .
Given back: 16%

Asked: I would be grateful if you could share the reported percent inhibition of Factor 7 mRNA, 3.125 nM for 407910 (antisense eA*eG*eT*e[5mC]*e[5mC]*dT*dT*dG*d[5mC]*dT*dG*d[5mC]*d[5mC]*dA*dT*e[5mC]*e[5mC]*eG*eA*eG) [compound 407910] .
Given back: 31%
